Test: clinical
Conditions: human, in vivo, iv
MEASUREMENT TYPE: clearance

INPUT: Fill in the blank: the reported clearance of "CN(C)c1cc(NC(=O)CNC(C)(C)C)c(O)c2c1C[C@H]1C[C@H]3[C@H](N(C)C)C(O)=C(C(N)=O)C(=O)[C@@]3(O)C(O)=C1C2=O" is ____.
OUTPUT: 3.82 mL/min/kg

###

Assay: clinical
Conditions: human, in vivo
MEASUREMENT TYPE: half-life (h)
Just the number in h, nothing appended.

INPUT: Fill in the blank: the reported half-life of CN(C)c1cc(NC(=O)CNC(C)(C)C)c(O)c2c1C[C@H]1C[C@H]3[C@H](N(C)C)C(O)=C(C(N)=O)C(=O)[C@@]3(O)C(O)=C1C2=O [Tigecycline] is ____.
OUTPUT: 26.7
